# tested.system: human RIOK2 protein (Homo sapiens)
# Construct: glutathione S-transferase is fused to N-terminal of a full-length human RIOK2 protein; GST (glutathione S-transferase) (N); purchased CarnaBio, Inc; host or cells: baculovirus-Sf21 cell expression system
# procedure.text: RIOK2 autophosphorylation ELISA (Test Example 4)
# Assay type: biochemical
# protocol.conditions: read-out: Inhibitory activity at 10 μM (%)
inhibition at 10 µM values for the molecules below.
Field: numeric (%). Do not append units.

Notebook: Cc1[nH]c(/C=C2\C(=O)Nc3ccc(-c4ccc(-c5ccccc5)s4)cc32)c(C)c1C(=O)N1CCN(C)CC1 [Example 3] , inhibition at 10 µM read as 65

Reported inhibition at 10 µM of Cc1[nH]c(/C=C2\C(=O)Nc3ccc(-c4cnn(-c5ccccc5)c4)cc32)c(C)c1C(=O)NC1[C@H]2CNC[C@@H]12 (stereo partly shown) [Example 95] : 134

Looking up Cc1[nH]c(/C=C2\C(=O)Nc3ccc(-c4cnn(-c5ccccc5)c4)cc32)c(C)c1C(=O)NCC1(N)CCCC1 [Example 93] , I found its inhibition at 10 µM recorded as 65

Data point: CCN(CC)CCNC(=O)c1c(C)[nH]c(/C=C2\C(=O)Nc3ccc(-c4ccc(-c5ccccc5)s4)cc32)c1C [Example 1] ; inhibition at 10 µM = 14

###

# tested.system: human RIOK2 protein (Homo sapiens, UniProt Q9BVS4)
# Construct: glutathione S-transferase is fused to N-terminal of a full-length human RIOK2 protein; GST (glutathione S-transferase) (N); purchased CarnaBio, Inc; host or cells: baculovirus-Sf21 cell expression system
# Sequence (Q9BVS4 whole entry, the tested form may be a part): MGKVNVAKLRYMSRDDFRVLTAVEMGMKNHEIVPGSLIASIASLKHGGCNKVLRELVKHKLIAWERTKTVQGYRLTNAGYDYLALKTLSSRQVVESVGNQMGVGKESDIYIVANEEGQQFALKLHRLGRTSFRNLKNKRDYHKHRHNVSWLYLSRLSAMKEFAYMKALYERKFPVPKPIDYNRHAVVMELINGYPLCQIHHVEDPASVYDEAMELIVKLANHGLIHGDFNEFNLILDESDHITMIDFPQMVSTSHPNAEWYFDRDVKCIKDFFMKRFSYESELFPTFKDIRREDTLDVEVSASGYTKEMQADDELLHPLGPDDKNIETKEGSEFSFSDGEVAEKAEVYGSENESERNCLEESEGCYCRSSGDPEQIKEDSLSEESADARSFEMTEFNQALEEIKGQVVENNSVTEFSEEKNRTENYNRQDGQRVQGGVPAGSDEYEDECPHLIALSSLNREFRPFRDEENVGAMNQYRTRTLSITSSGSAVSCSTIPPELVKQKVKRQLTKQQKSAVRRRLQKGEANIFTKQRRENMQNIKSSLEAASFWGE
# procedure.text: RIOK2 autophosphorylation ELISA (Test Example 4)
# Format: biochemical
# protocol.conditions: read-out: Inhibitory activity at 10 μM (%)
Kindly return y if reported inhibition at 10 µM is no lower than 90%; return n if it is lower.

# item.smiles, class.assignment
measured = [
    ("Cc1[nH]c(/C=C2\\C(=O)Nc3ccc(-c4cnn(-c5ccccc5)c4)cc32)c(C)c1C(=O)NC1CCNCC1", "y"),
    ("CCN(CC)CCNC(=O)c1c(C)[nH]c(/C=C2\\C(=O)Nc3ccc(-c4cnn(-c5cscn5)c4)cc32)c1C", "y"),
    ("CCN(CC)CCNC(=O)c1c(C)[nH]c(/C=C2\\C(=O)Nc3ccc(-c4ccnn4-c4ccc(Cl)c(Cl)c4)cc32)c1C", "n"),
    ("CCN(CC)CCN(C)C(=O)c1c(C)[nH]c(/C=C2\\C(=O)Nc3ccc(-c4cnn(-c5ccccc5)c4)cc32)c1C", "y"),
    ("CCN(CC)CCNC(=O)c1c(C)[nH]c(/C=C2\\C(=O)Nc3ccc(-c4ccnn4-c4cccc(OC)c4)cc32)c1C", "y"),
    ("Cc1[nH]c(/C=C2\\C(=O)Nc3ccc(-c4cnn(-c5ccccc5)c4)cc32)c(C)c1C(=O)NC[C@H]1CCCN1", "y"),
]

Request: Check if inhibition at 10 µM >= 90% (inclusive). Item: CCOCCCNC(=O)c1c(C)[nH]c(/C=C2\C(=O)Nc3ccc(-c4cnn(-c5ccccc5)c4)cc32)c1C
Response: n

Request: State whether the measured inhibition at 10 µM reaches 90%, counting equality as reaching it, for CCN(CC)CCNC(=O)c1c(C)[nH]c(/C=C2\C(=O)Nc3ccc(-c4cnn(-c5nccs5)c4)cc32)c1C
Response: y

Request: Reported inhibition at 10 µM at or above 90%? CCN(CC)CCNC(=O)c1c(C)[nH]c(/C=C2\C(=O)Nc3ccc(-c4ccnn4-c4ccncc4)cc32)c1C
Response: n

Request: Could you verify whether the entry CCN(CC)CCNC(=O)c1c(C)[nH]c(/C=C2\C(=O)Nc3ccc(-c4ccnn4-c4ccccc4F)cc32)c1C shows inhibition at 10 µM of no less than 90%?
Response: y

Request: Is inhibition at 10 µM for CCN(CC)CCNC(=O)c1c(C)[nH]c(/C=C2\C(=O)Nc3ccc(-c4ccnn4-c4cccc(C)c4)cc32)c1C at or above 90%?
Response: y

Request: Identify whether the reported inhibition at 10 µM of the following molecule is 90% or greater: CCN(CC)CCNC(=O)c1c(C)[nH]c(/C=C2\C(=O)Nc3ccc(-c4ccnn4-c4ccc(OC)cc4)cc32)c1C
Response: y

Request: Has Cc1[nH]c(/C=C2\C(=O)Nc3ccc(-c4cnn(-c5ccccc5)c4)cc32)c(C)c1C(=O)NC[C@@H]1CCCN1 a recorded inhibition at 10 µM greater than or equal to 90%?
Response: y

Request: Identify whether the reported inhibition at 10 µM of the following molecule is 90% or greater: CCN(CC)CCNC(=O)c1c(C)[nH]c(/C=C2\C(=O)Nc3ccc(-c4ncc(-c5ccccc5)o4)cc32)c1C
Response: n

Numbers sourced from patent US20190241569A1.
